Where these numbers come from: ChEMBL document CHEMBL3785072

- System: Human immunodeficiency virus 1
- assay_notes: Antiviral activity against HIV1 NL4.3 expressing reverse transcriptase K103N mutant infected in human TZM-bl cells assessed as viral inhibition pre-incubated for 30 mins prior to infection measured after 48 hrs by luciferase assay
- Format: functional, organism-based
- assay_setup: Human immunodeficiency virus 1, NL4.3, TZM-bl
measurement_label: EC50
Just the number plus its unit, please.

Observe how each entry below is paired with its result.
{"compound": "Cc1cc(/C=C/C#N)cc(C)c1Nc1ccc(F)c(Nc2ccc(C#N)cc2)n1", "EC50": "7.8 nM"}
{"compound": "Cc1cc(C)c(Nc2ccnc(Nc3ccc(C#N)cc3)n2)c(C)c1 [DAPIVIRINE]", "EC50": "2.8 nM"}
{"compound": "Cc1cc(/C=C/C#N)cc(F)c1Nc1ccc(F)c(Nc2ccc(C#N)cc2)n1", "EC50": "36 nM"}

# next compound below
What the record says about Cc1cc(/C=C/C#N)cc(C)c1Nc1ccnc(Nc2ccc(C#N)cc2)n1 [RILPIVIRINE] : EC50 is 0.7 nM

---

- assay_notes: Selectivity index, ratio of CC50 for human TZM-bl cells to EC50 for R5-tropic HIV1 subtype B BaL infected in human TZM-bl cells
- Type: toxicity, cell-based
- assay_setup: TZM-bl cells, read-out: Selectivity Index
measurement_label: selectivity ratio
Numbers only.

{"compound": "Cc1cc(/C=C/C#N)cc(C)c1Nc1ccnc(Nc2ccc(C#N)cc2)n1", "test_result": 10700}
{"compound": "Cc1cc(C#N)cc(F)c1Nc1ccc(F)c(Nc2ccc(C#N)cc2)n1", "test_result": 4600}
{"compound": "Cc1cc(C)c(Nc2cccc(Nc3ccc(C#N)cc3)n2)c(C)c1", "test_result": 1400}
{"compound": "Cc1cc(/C=C/C#N)cc(C)c1Nc1ccc(F)c(Nc2ccc(C#N)cc2)n1", "test_result": 62500}
{"compound": "COC(=O)c1ccc(Nc2nc(Nc3c(C)cc(/C=C/C#N)cc3C)ccc2F)cc1", "test_result": 2100}
{"compound": "Cc1cc(/C=C/C#N)cc(C)c1Nc1ccc(F)c(Nc2ccc(Cl)cc2)n1 (mixture of isomers)", "test_result": 6600}

Hello, I would appreciate it if you could give selectivity ratio for each entry below.
1. N#C/C=C/c1ccc(Nc2ccc(F)c(Nc3ccc(C#N)cc3)n2)cc1 (mixture of isomers)
2. COC(=O)/C=C/c1cc(C)c(Nc2ccc(F)c(Nc3ccc(F)cc3)n2)c(C)c1

[14, 610]

---

Please go through the items and note down their selectivity ratio.
- assay_notes: Selectivity index, ratio of CC50 for human TZM-bl cells to EC50 for R5-tropic HIV1 subtype B BaL infected in human TZM-bl cells
- Assay type: toxicity, cell-based
- assay_setup: TZM-bl cells, read-out: Selectivity Index

Give selectivity ratio for each of the items listed below.
1. Cc1cc(/C=C/C#N)ccc1Nc1ccc(F)c(Nc2ccc(C#N)cc2)c1 (mixture of isomers)
2. Cc1cc(/C=C/C#N)cc(C)c1Nc1ccc(F)c(Nc2ccc(C#N)cc2)c1 (mixture of isomers)
3. Cc1cc(C#N)cc(C)c1Nc1ccc(F)c(Nc2ccc(C#N)cc2)n1
4. Cc1cc(/C=C/C#N)cc(F)c1Nc1ccc(F)c(Nc2ccc(C#N)cc2)c1 (mixture of isomers)
5. Cc1cc(C)c(Oc2ccc(F)c(Nc3ccc(C#N)cc3)n2)c(C)c1
6. COC(=O)/C=C/c1cc(C)c(Nc2ccc(F)c(Nc3ccc(Cl)cc3)n2)c(C)c1
7. Cc1cc(C#N)cc(C)c1Nc1cccc(Nc2ccc(C#N)cc2)n1

[89, 7400, 7100, 6100, 6400, 950, 930]

Required: selectivity ratio, one value per molecule below.
1. N#C/C=C/c1cc(F)c(Nc2ccc(F)c(Nc3ccc(C#N)cc3)n2)c(F)c1 (mixture of isomers)
2. COC(=O)/C=C/c1cc(C)c(Nc2ccc(F)c(Nc3ccc(C#N)cc3)n2)c(C)c1

1. 4600
2. 13000
